Dissolved amount reference
# experiment description: Dissolution test of poorly-soluble substances using distilled water
# Format: physicochemical
# protocol conditions: water; elution time 120 min
API: value field is a number in µg/mL; no unit string.

Some entries whose results are on file:
{"compound": "CCn1cc(C(=O)O)c(=O)c2cc(F)c(N3CCNCC3)cc21", "Dissolved amount [µg/mL]": 470.7}
{"compound": "OCCN(CCO)c1nc(N2CCCCC2)c2nc(N(CCO)CCO)nc(N3CCCCC3)c2n1", "Dissolved amount [µg/mL]": 8.5}
{"compound": "CC(=O)Nc1nnc(S(N)(=O)=O)s1 [compound 23, Acetazolamide]", "Dissolved amount [µg/mL]": 1251.4}
{"compound": "COc1ccc2c(c1)c(CC(=O)O)c(C)n2C(=O)c1ccc(Cl)cc1", "Dissolved amount [µg/mL]": 8.5}

Proceeding to the next compound to report its Dissolved amount.
Task: Record request: Dissolved amount value, item CC[C@H]1OC(=O)[C@H](C)[C@@H](O[C@H]2C[C@@](C)(OC)[C@@H](O)[C@H](C)O2)[C@H](C)[C@@H](O[C@@H]2O[C@H](C)C[C@H](N(C)C)[C@H]2O)[C@](C)(O)C[C@@H](C)C(=O)[C@H](C)[C@@H](O)[C@]1(C)O
Result: 927.7

* * *

# experiment description: Dissolution test of poorly-soluble substances using distilled water
# Type: physicochemical
# protocol conditions: after dissolution test for 360 minutes; distilled water; 37±0.5° C.
experimental readout: Dissolved amount (µg/mL)
API: value field is a number in µg/mL; no unit string.

Task: Record request: Dissolved amount value, item COc1ccc(Cl)cc1C(=O)NCCc1ccc(S(=O)(=O)NC(=O)NC2CCCCC2)cc1 [compound 11, Glibenclamide]
Result: 6.4

Task: Record request: Dissolved amount value, item CCC1(c2ccccc2)C(=O)NCNC1=O
Result: 180.3

Task: Record request: Dissolved amount value, item CC(=O)Oc1ccccc1C(=O)O
Result: 3110.4

Task: Record request: Dissolved amount value, item COc1cc(Cc2cnc(N)nc2N)cc(OC)c1OC
Result: 656.3

* * *

# experiment description: Dissolution test of poorly-soluble substances using distilled water
# Assay type: physicochemical
# protocol conditions: water; elution time 180 min
Dissolved amount reference
Param answer (str): number followed by unit.

Some entries whose results are on file:
{"molecule": "CC(=O)Oc1ccccc1C(=O)O", "observed measurement": "3108.1 µg/mL"}
{"molecule": "CC(C)(Sc1cc(C(C)(C)C)c(O)c(C(C)(C)C)c1)Sc1cc(C(C)(C)C)c(O)c(C(C)(C)C)c1", "observed measurement": "8.3 µg/mL"}

Task: Record request: Dissolved amount value, item CC1(C)[C@@H](O[C@H]2O[C@H](C(=O)O)[C@@H](O)[C@H](O)[C@H]2O[C@@H]2O[C@H](C(=O)O)[C@@H](O)[C@H](O)[C@H]2O)CC[C@]2(C)[C@H]3C(=O)C=C4[C@@H]5C[C@@](C)(C(=O)O)CC[C@]5(C)CC[C@@]4(C)[C@]3(C)CC[C@@H]12 [Comparative Example 16, Ammonium Glycyrrhizinate]
Result: 8826.1 µg/mL

* * *

# experiment description: Dissolution test of poorly-soluble substances using 2nd fluid for disintegration test (pH 6.8) of the Japanese Pharmacopoeia
# Format: physicochemical
# protocol conditions: 2nd fluid for disintegration test; elution time 10 min
Decide by Dissolved amount: equal to or exceeding 800 µg/mL means Met, less means Not met.

Task: Answer whether Dissolved amount of O=C1NC(=O)C(c2ccccc2)(c2ccccc2)N1 [compound 21, Phenyloin] is greater than or equal to 800 µg/mL.
Result: Not met

Task: Answer whether Dissolved amount of NC(N)=Nc1nc(CSCCC(N)=NS(N)(=O)=O)cs1 [Comparative Example 17, Famotidine] is greater than or equal to 800 µg/mL.
Result: Met

Task: Answer whether Dissolved amount of CCS(=O)(=O)CCn1c([N+](=O)[O-])cnc1C [compound 25, Tinidazole] is greater than or equal to 800 µg/mL.
Result: Met

Task: Answer whether Dissolved amount of NC(=O)N1c2ccccc2C=Cc2ccccc21 [compound 22, Carbamazepine] is greater than or equal to 800 µg/mL.
Result: Not met

Task: Answer whether Dissolved amount of CC(=O)Oc1ccccc1C(=O)O [Comparative Example 1-3, Aspirin] is greater than or equal to 800 µg/mL.
Result: Met

Task: Answer whether Dissolved amount of CCn1cc(C(=O)O)c(=O)c2cc(F)c(N3CCNCC3)cc21 [compound 27, Norfloxacin] is greater than or equal to 800 µg/mL.
Result: Not met

Task: Answer whether Dissolved amount of O=[N+]([O-])O[C@H]1CO[C@H]2[C@@H]1OC[C@H]2O[N+](=O)[O-] [compound 30, Isosorbide Dinitrate] is greater than or equal to 800 µg/mL.
Result: Met

Task: Answer whether Dissolved amount of Cn1c(=O)c2[nH]cnc2n(C)c1=O [Comparative Example 15, Theophylline] is greater than or equal to 800 µg/mL.
Result: Met
